- Test system: human B cell lymphoblastoid cell line Ramos
- Protocol Notes: Caspase cascade activation in Ramos cells
- Assay type: cell-based
- Run Conditions: 48 h incubation, read-out: caspase potency EC50 RAMOS
- Experimental: Human breast cancer cell lines T-47D, human hepatocellular carcinoma cell line SNU398, human colon carcinoma cell line HCT116, human cancer cell line H11299, human Burkitt's lymphoma cell line Namalwa, human lymphoma cell line Raji, and human B cell lymphoblastoid cell line Ramos were grown according to media component mixtures designated by American Type Culture Collection+10% FCS (Invitrogen Corporation), in a 5% CO2-95% humidity incubator at 37° C. […]

{"Entry Smiles": "CCc1cc(-c2nnc3sc(-c4ccc(C)cc4)nn23)n(C)n1", "EC50": "> 10 µM"}
{"Entry Smiles": "COc1cccc(-c2nn3c(-c4cc(OC)c(OC)c(OC)c4)nnc3s2)c1", "EC50": "> 10 µM"}
{"Entry Smiles": "COc1ccc(-c2nn3c(-c4ccc(Cl)cc4)nnc3s2)cc1", "EC50": "> 10 µM"}
{"Entry Smiles": "Clc1ccccc1-c1nnc2sc(-c3ccc4c(c3)OCO4)nn12", "EC50": "> 10 µM"}
